The measured values listed here are drawn from ChEMBL document CHEMBL5029156.

- system-under-test: Aldehyde oxidase (Homo sapiens, UniProt Q06278)
- Sequence (Q06278 whole entry): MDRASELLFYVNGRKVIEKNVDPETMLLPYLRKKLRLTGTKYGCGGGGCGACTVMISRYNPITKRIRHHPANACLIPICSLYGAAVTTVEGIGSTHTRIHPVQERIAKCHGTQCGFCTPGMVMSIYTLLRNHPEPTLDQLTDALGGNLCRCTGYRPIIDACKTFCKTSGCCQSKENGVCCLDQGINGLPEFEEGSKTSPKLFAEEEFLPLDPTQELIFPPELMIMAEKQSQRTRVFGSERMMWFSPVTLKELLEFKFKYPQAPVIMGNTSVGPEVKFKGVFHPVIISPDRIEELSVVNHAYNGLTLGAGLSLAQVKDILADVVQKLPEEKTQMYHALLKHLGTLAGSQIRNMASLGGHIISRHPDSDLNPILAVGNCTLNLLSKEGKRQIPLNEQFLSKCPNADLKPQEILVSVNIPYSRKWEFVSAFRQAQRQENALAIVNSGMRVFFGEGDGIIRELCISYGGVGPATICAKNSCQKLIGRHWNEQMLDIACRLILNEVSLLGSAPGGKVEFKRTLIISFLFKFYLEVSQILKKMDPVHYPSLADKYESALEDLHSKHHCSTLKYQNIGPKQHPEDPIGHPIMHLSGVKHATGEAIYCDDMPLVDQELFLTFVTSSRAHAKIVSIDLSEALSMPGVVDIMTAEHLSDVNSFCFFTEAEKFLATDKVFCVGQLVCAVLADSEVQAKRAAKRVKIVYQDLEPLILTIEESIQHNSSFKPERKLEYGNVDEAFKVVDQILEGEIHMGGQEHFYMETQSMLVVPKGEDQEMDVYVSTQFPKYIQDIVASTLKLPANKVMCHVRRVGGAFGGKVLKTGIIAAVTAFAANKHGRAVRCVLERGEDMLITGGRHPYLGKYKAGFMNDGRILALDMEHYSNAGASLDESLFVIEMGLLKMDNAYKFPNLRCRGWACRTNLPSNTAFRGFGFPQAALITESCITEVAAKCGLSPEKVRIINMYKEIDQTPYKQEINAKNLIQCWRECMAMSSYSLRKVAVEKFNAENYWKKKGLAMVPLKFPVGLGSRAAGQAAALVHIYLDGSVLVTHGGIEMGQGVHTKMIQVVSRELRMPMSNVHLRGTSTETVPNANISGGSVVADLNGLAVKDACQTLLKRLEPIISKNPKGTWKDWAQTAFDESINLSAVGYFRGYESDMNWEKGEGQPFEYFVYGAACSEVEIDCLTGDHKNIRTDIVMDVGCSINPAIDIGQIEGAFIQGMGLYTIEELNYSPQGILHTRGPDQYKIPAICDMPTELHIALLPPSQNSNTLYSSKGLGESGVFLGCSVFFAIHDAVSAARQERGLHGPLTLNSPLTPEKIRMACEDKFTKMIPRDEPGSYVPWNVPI
- test-summary: Mixed type inhibition of human AOX assessed as inhibitor dissociation constant by measuring changes in slope of the double reciprocal plot using phenanthridine as substrate by Michaelis-Menten analysis
- run-parameters: read-out: Kis
endpoint-label: Ki (µM)
Number only, in µM; omit the unit.

Reported Ki, molecule N=C(N)c1ccccc1 : ____
1240

* * *

- system-under-test: UniProt Q06278
- test-summary: Noncompetitive type inhibition of human AOX assessed as inhibitor dissociation constant by measuring slope of the double reciprocal plot using phthalazine as substrate by Michaelis-Menten analysis
- run-parameters: read-out: Kis
endpoint-label: Ki
Just the number plus its unit, please.

Reported Ki, molecule CSc1ccc2c(c1)N(CCC1CCCCN1C)c1ccccc1S2 (stereo unspecified) : ____
1300 nM
